tested on: Rat isolated portal vein; assay: Rat isolated portal vein: spontaneous contractions and contractions due to added calcium; assay type: cell-based; details: 0.25 h, contractions due to added calcium (3 mM CaCl2) in Krebs-Henseleit with 0.05 mM CaCl2, 15 min contact time, read-out: IC50 Ca^2+ (3 mM)
quantity-measured: IC50 (nM)
Number in nM, nothing else.

Write down IC50 measured for item CC1(C)Oc2ccc(C#N)cc2[C@@H](N2CCCC2=O)[C@@H]1O (relative stereo) [Compound 1] 150

Reference source: patent US4738963A
